- Procedure Text: Metabolic (microsomal) stability assay, human liver microsomes (HLM)
- Assay type: in vitro ADME
- Recorded Conditions: 1 μM, predicted clearance as percent of liver blood flow
Measurement Name: HLM QH [%] (%)

Completed entries (count: 3):
Smiles Input: C[C@H]1CN(C)CCCN1c1cc(O[C@@H]2CNC2(C)C)nc(-c2noc3c2CCC[C@@]32CCCc3sc(N)c(C#N)c32)n1
HLM QH [%] [%]: 26
//
Smiles Input: C[C@H](Oc1cc(O[C@H]2CCOC2)nc(-c2noc3c2CCC[C@@]32CCCc3sc(N)c(C#N)c32)n1)[C@@H]1CCCN1C
HLM QH [%] [%]: 59
//
Smiles Input: C[C@H](Oc1cc(Sc2ncccn2)nc(-c2onc3c2CCC[C@@]32CCCc3sc(N)c(C#N)c32)n1)[C@@H]1CCCN1C
HLM QH [%] [%]: 38

P. C[C@H](Oc1cc(Oc2cncnc2)nc(-c2onc3c2CCC[C@@]32CCCc3sc(N)c(C#N)c32)n1)[C@@H]1CCCN1C
Q. COCCOc1cc(O[C@@H](C)[C@@H]2CCCN2C)nc(-c2noc3c2CCC[C@@]32CCCc3sc(N)c(C#N)c32)n1
[Q] Of P and Q , which shows the smaller HLM QH [%] value? Use the label to indicate which entry you chose.
[A] Q
(Q: 31%, P: 69%)
